Answer each item with its documented pEC50.
Biological target: CAM α1b-adrenoceptor/GFP fusion protein (Mesocricetus auratus, UniProt P18841, A293L/K290H/R288K)
Sequence (P18841 whole entry R288K/K290H/A293L, the tested form may be a part): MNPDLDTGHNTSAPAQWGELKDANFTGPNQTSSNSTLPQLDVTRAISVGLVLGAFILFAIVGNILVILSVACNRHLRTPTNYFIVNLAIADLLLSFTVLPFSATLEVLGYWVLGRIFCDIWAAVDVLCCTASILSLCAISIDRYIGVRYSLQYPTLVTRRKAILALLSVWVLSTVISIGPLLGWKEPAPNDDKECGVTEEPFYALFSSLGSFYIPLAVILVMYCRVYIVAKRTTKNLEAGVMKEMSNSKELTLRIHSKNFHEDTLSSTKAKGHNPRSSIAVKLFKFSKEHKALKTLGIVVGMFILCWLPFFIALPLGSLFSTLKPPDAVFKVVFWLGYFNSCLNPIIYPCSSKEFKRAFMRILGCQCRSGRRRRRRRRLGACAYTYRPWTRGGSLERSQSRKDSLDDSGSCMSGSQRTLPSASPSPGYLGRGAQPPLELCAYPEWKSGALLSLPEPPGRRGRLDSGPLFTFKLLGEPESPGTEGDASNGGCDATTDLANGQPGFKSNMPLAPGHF
Experiment: Plate fluorimetry, CAM α1b-adrenoceptor/GFP in HEK 293 cells
Conditions: 22 hrs treatment, range in brackets, read-out: EC50 of up-regulation of fluorescence of CAM α1b-adrenoceptor/GFP
Protocol: These cell lines were used to investigate ligand up-regulation of the CAM α1b-adrenoceptor/GFP fusion protein. Fusion protein upregulation was measured according to a gain in total cellular fluorescence in a plate based fluorimeter. For experiments cells were seeded into black 96 well view plates (Costar) on the day before assay. […] Cells were incubated at 37° C. for 22 hours. After incubation fluorescence was detected using a Tecan Spectrafluor plus fluorimeter. […]
Answers are plain numbers, as −log10 of the molar value.

Record pEC50 for all entries; do not skip any.
1. CCC(C#N)(CCCNCCOc1ccccc1OC)c1cc(OC)c(OC)c(OC)c1 (stereo not drawn) [HV 723]
2. Cc1ccc(N(CC2=NCCN2)c2cccc(O)c2)cc1 [phentolamine]
3. COc1cccc(OC)c1OCCNCC1COc2ccccc2O1 (stereo not drawn) [WB 4101]

-- reply
1: 6.38; 2: 6.77; 3: 6.17
